Values compiled from the supplement of paper PMC12764529.

// reported folding stability dG unfold for each item listed
assay_text: folding stability dG unfold from trypsin proteolysis; higher = more stable
Answer format: numeric, kcal/mol implied, no suffix.

Task: Reported folding stability dG unfold, sequence SMTLVLENEDGSLYRIEFDEETGEIYIYNAETGEKYRITFKDGKTEEINAKDLSLEELKALPGLKIEPVPSA [r9_205_TrROS_Hall] : ____
Result: 2.74

Task: Return reported folding stability dG unfold; argument: SAGGSEPPKIKKIKDINVKHERHNDRPYWEVKIRIKLKNGNTAEIDIEMPGMPPEEAREQIKDILKSAGGSA [r2_26_TrROS]
Result: 0.391

Task: What value of folding stability dG unfold has been reported for the following sequence? SAGGSAGGGYELRVTVYDPRTGKPVAEATFTATSPEEAEARFEEIRRALPPEYLVFAEIRPVPESAGGSAGG [r6_688_TrMRF]
Result: 4.94

Task: Record request: folding stability dG unfold value, item SSISPSSTLTFSKPFPDDDINAVKEFAEKLAKEIGPDVSVVKIEKDPNNPNKVTITISVPGTSITVNFSNSA [r9_1079_JUSTAS]
Result: 1.09

Task: Please give the measured folding stability dG unfold for this sequence: SAGSVTVTETKTEGDKETITMTRPETGETVEEKITKKNGKVKVTKTYYSPSGVKLGSSEKVLSESELLLSAG [r5_308_JUSTAS]
Result: -0.0129

Task: Quick one: folding stability dG unfold for SPYTVDSVSEDPSRNSTTVLNFPDGTTVTVTYDPSNPSLATVTVRPADGTTETTTVPLDEPFVVNLTVNPSA [r9_875_JUSTAS] ?
Result: 0.922

***
Task: Requested field: folding stability dG unfold. Item: SAMVITIHPDIPLEELAELLGFPEIEDATVEPLNEGIVPATFHIPEDPDKVILIDFNPEPDFALVLVLSSAG [r14_713_TrMRF]
Result: 1.59

Task: Reported folding stability dG unfold for SAGGGLLEELARELGFEAEIEEIPETGILRITLRPEDGSEVEITVKVTRIPGLGEVKLEVLEVKVRPTSAGG [r13_936_TrMRF] : what is it?
Result: 3.15

Task: What does the data say about its folding stability dG unfold? Entry: SAGGIWIPVPNADWAVDFIIEFIDQFGPGAKIDKITVYNGGKEREITPGEPPKIPPGSWFEIDLEPKSAGGS [r16_267_TrROS]
Result: 0.698

Task: Param item = SAGGSAMMTVTITIPKENLTKEEIKKALEEAGAKVVKVEEKDGKVTVTVEMTPEQVEKLKEALKKLSAGGSA [r15_161_TrROS_Hall] ; retrieve measured folding stability dG unfold.
Result: 3.98

Task: Entry under review: SAGGSAGGSDDTAEFEGPVNVTLTLDGKPVNINAWVTRLPPGWFRIVLPDGVIELPGGNLRVGSAGGSAGGS [r12_790_TrMRF] . Reported folding stability dG unfold?
Result: 0.84

Task: // lookup folding stability dG unfold for SAGRKIEIHVPYDELRELFGPGQTAEDLADWIAQEGYQIEDIEVEPEPNPNNGKKYYRVTFEVKPPKKSAGG [r19_376_TrROS]
Result: 0.345

Task: Look up folding stability dG unfold: SAGGMKIGVLLPKSIPPEKAEEFLKKLNPDLEVEYRPVEPGSLKDIPPEIEVIVLPADDDFALALVKPSAGG [r13_649_TrMRF]
Result: 0.323

Task: Would you kindly share the measured folding stability dG unfold for SMVTVERPESTKTIDAPPSATVEFDPATGTLRVYSPDGTATTVPLSPTWSIQPSDNSVTVTAPPASPAAPSA [r9_653_JUSTAS] ?
Result: 0.056

---

assay_text: folding stability dG unfold from trypsin proteolysis; higher = more stable
Class Criterion met: folding stability dG unfold at least 0.8 kcal/mol. Class Criterion not met: folding stability dG unfold below 0.8 kcal/mol.

Illustrative cases are given below, each with its answer.
Task: folding stability dG unfold >= 0.8 kcal/mol for SAGGSAGGSALKNAPGPDPALLKPRPVLVIPIPKDIPLEEAEALAEIFRKLYPDVPVVLDVEGGSAGGSAGG [r6_299_TrMRF] ?
Result: Criterion met

Task: Say whether SAGGSAGGSGPMDDPVPPRFSVETSVSPVALPPEFVAYVAAHPEEVDAVYTTTVVVLEEGPAGSAGGSAGGS [r12_196_JUSTAS] shows folding stability dG unfold of 0.8 kcal/mol or more.
Result: Criterion not met

Task: Is folding stability dG unfold for SAMVSPEEAAKLIAEKIREEHPDPNIVVPVKVEYDPETNTTTITVTVKYPDDPSTETFTYTLAPDDVLKSAG [r14_849_JUSTAS] at or above 0.8 kcal/mol?
Result: Criterion met

Task: Test whether the sequence SAGGSSMQTTVFILPGPEVPVEEVKAKIAKELGLDFETVTFIPAPSREEAEALAAALGVDGIIVEVDSAGGS [r8_245_JUSTAS] records folding stability dG unfold of 0.8 kcal/mol or higher.
Result: Criterion met

Task: Test whether the sequence KTITIVIKNEDGELYVIKIKLKNGEEKEIVFKSLEELKNAIAKELGLSKEKIEIVEIKPLSPEELKELEKKS [r1_119_TrROS_Hall] records folding stability dG unfold of 0.8 kcal/mol or higher.
Result: Criterion met

Task: Hi, just wondering whether SASSELLELLKALPTPEVPTDPIFTLEEPDRPIRVLSYDPETGLVTMLIPGTGARLIRDPASGTYTLLPSAG [r14_359_JUSTAS] shows folding stability dG unfold of 0.8 kcal/mol or higher.
Result: Criterion not met

Consider the additional sequence presented here.
Task: Would you say SAGGSAGGSALEIPFPIKDVKWERNPDGSRTRTFYLKNGWRASLIFNPKNGQMQIDIEPLDSAGGSAGGSAG [r3_438_TrROS] shows folding stability dG unfold at minimum 0.8 kcal/mol?
Result: Criterion met

---

A collection of sequences and their measured folding stability dG unfold
assay_text: folding stability dG unfold from chymotrypsin proteolysis; higher = more stable

Task: Look up folding stability dG unfold: SAGGSAGGSAGGDKKDPGQPRQEVEIEIPVYDPNGKPKGPIEITMPAGQSLDEIADEIFNSAGGSAGGSAGG [r7_110_TrROS]
Result: 1.05 kcal/mol

Next:
Task: Would you kindly share the measured folding stability dG unfold for SAGGSAGGSAGGNWVMIEFNFPPGKKLKIEIPNGRDIQRHRDPDNGTLWFMIPPEAAEDFSAGGSAGGSAGG [r7_155_TrROS] ?
Result: 0.509 kcal/mol

Task: Param item = SAGGIEDIANEFGIEDVEIEEINPEYNEVTVTFRFRGPNGNPFTWTYTIEVPPPPPPEPKMDPEDNNNSAGG [r13_608_TrROS] ; retrieve measured folding stability dG unfold.
Result: 2.44 kcal/mol

---

assay_text: folding stability dG unfold from trypsin proteolysis; higher = more stable
measured_metric: folding stability dG unfold (kcal/mol)
Reply with just the number (in kcal/mol).

Take a look at these entries with their results.
Task: Query: folding stability dG unfold; subject: SAGGSAGGSMKVVKVELTLTGPGGEVTYLEEEIEVPEDELGEIEVSLPDENLSYEVTVEVIEESAGGSAGGS [r12_354_JUSTAS]
Result: 0.444

Task: Param item = SMKPITLEEALKLAEKLIEEGAKEVVIIRREDGTLLAIMEAEEASPEKVKEFLEANPNVRVLRITGSKEESA [r9_568_TrMRF] ; retrieve measured folding stability dG unfold.
Result: 3.17

Task: I would be grateful if you could share the reported folding stability dG unfold for SMVVLPVRYPDLSPEEARAAVEALAAEIEAAVGAEVRVEVEVERAPDGTPVRVLVTATVVIRTAADALLLSA [r9_21_JUSTAS] .
Result: 0.946

Kindly review the next sequence as well.
Task: Bench note: what folding stability dG unfold did SAGGSAGGSAGMETIRLTFTVPGPDDRYYRVSVEARINPPTGEIEILRVEITPLDNPDAISAGGSAGGSAGG [r11_777_TrMRF] show?
Result: 3.09

---

assay_text: folding stability dG unfold from chymotrypsin proteolysis; higher = more stable
folding stability dG unfold reference
Unit kcal/mol implied. Number only.

Task: Please give the measured folding stability dG unfold for this sequence: SAGGKIKIQFNGQEFTITEFEIIEPQPNKGGGPYYRIRIKFPNGPMEIMIPPNMPPEIKPGDTFTIASAGGS [r16_638_TrROS]
Result: 1.96

Task: I would be grateful if you could share the reported folding stability dG unfold for SAGGSAGGSEGFVLRVRRYRRRPDDRVRVPVSEAELEVLPELADAVARALREASPEVEVELRPSAGGSAGGS [r12_342_TrMRF] .
Result: 0.0982

Task: // lookup folding stability dG unfold for SVEKAREALEEAGFEVTRIEVREDGTVRVTVRRDGKLVEIELTVEPPPPVEVVEEEPEVRVERRYSAEDLSA [r9_2_TrROS_Hall]
Result: -0.34

Continue with the sequence presented below.
Task: Using the record for SAPKIDSISIMWPGNHWYISIWYPDKNGEPMKEVMFPFESPEDLKDQIEELSPPGDVTVDIYPMPPDAFSAG [r14_964_TrROS] , report its folding stability dG unfold.
Result: 1.54
